System: HEK-293T
Experiment: Multiplex assay against HEK293T
Type: toxicity, cell-based
Conditions: human, 24 h, 1 µM, compound concentration 1 uM, replicate 2
Item-by-item account of Population Membrane Permeable-Phenotype (%)
Write the numeric value and follow it with the unit.

COc1ccc2[nH]c(I)c(CCNC(C)=O)c2c1
0%
O=C(O)CCC/C=C\CC1C(O)CC(O)C1/C=C/C(O)COc1cccc(Cl)c1 (stereo unspecified)
0%
COc1c(Nc2ccc(S(C)(=O)=O)nc2C)ncnc1OC1CCN(C(=O)OC(C)C)CC1
1%

Query :: Let me know recorded Population Membrane Permeable-Phenotype (%) for C[C@H](NC(=O)CNC(=O)c1cccc(Cl)c1)c1ccccc1 , thanks.
Result :: 0%

Query :: State, in one line, measured Population Membrane Permeable-Phenotype (%) of CCCCC[C@H](O)/C=C/[C@H]1[C@H](O)CC(=O)[C@@H]1CCCCCCC(=O)O
Result :: 0%

Query :: Fill in reported Population Membrane Permeable-Phenotype (%) for this entry: O=C(Nc1cc(-c2ccccc2)nn1-c1ccccc1F)c1ccc([N+](=O)[O-])cc1
Result :: 1%

---

Test system: U2OS
Experiment: Multiplex assay against U2OS
Assay type: toxicity, cell-based
Settings: human, 12 h, 1 µM, compound concentration 1 uM, replicate 1
Quick reference for Population Mitotic Cells (%) among some compounds

Nc1nc(CC(=O)Nc2ccc(CCNC[C@H](O)c3ccccc3)cc2)cs1
13%
CN1C[C@H](C(=O)N[C@]2(C)O[C@@]3(O)[C@@H]4CCCN4C(=O)[C@H](Cc4ccccc4)N3C2=O)C[C@@H]2c3cccc4[nH]cc(c34)C[C@H]21.CS(=O)(=O)O [DIHYDROERGOTAMINE MESYLATE]
17%
N[C@](CC1c2ccccc2Oc2ccccc21)(C(=O)O)[C@H]1C[C@@H]1C(=O)O
20%

Moving on to another compound below.
Query :: Note Population Mitotic Cells (%) for the compound shown: COc1c(Nc2ccc(S(C)(=O)=O)nc2C)ncnc1OC1CCN(C(=O)OC(C)C)CC1
Result :: 17%

---

Catalogue of compounds with associated Population Healthy Nuclei (%)
Test system: HEK-293T
Test: Multiplex assay against HEK293T
Assay type: toxicity, cell-based
Settings: human, 24 h, 1 µM, compound concentration 1 uM, replicate 1

O=c1nc2[nH]c3ccccc3nc-2c(=O)[nH]1
76%
COc1cc(Nc2ncc3c(n2)-c2ccc(Cl)cc2C(c2c(F)cccc2OC)=NC3)ccc1C(=O)O
82%
COc1cc2nc(N3CCN(C(=O)COc4c(OC)cccc4C(C)C)CC3)nc(N)c2cc1OC.Cl.Cl
77%

Query :: Report Population Healthy Nuclei (%) for COc1cc2nc(N3CCN(C(=O)c4ccco4)CC3)nc(N)c2cc1OC.Cl [PRAZOSIN HYDROCHLORIDE]
Result :: 82%

Query :: Look up and state reported Population Healthy Nuclei (%) for Cn1cc(C(=O)OCC2CCN(CCNS(C)(=O)=O)CC2)c2ccccc21
Result :: 82%

Query :: Check the records and state Population Healthy Nuclei (%) for O=c1ccc2ccc(OCCCCN3CCN(c4cccc5sccc45)CC3)cc2[nH]1
Result :: 73%

Query :: Return value of Population Healthy Nuclei (%) for input CCCCC[C@H](O)/C=C/[C@H]1[C@H](O)CC(=O)[C@@H]1CCCCCCC(=O)O , no commentary.
Result :: 79%

Query :: Look up Population Healthy Nuclei (%) of O=C(O)CCC/C=C\CC1C(O)CC(O)C1/C=C/C(O)COc1cccc(Cl)c1 (stereo not given) and report it.
Result :: 76%

Query :: Give the value of Population Healthy Nuclei (%) reported for the following: O=C(Nc1cc(-c2ccccc2)nn1-c1ccccc1F)c1ccc([N+](=O)[O-])cc1
Result :: 78%

Query :: Tell me measured Population Healthy Nuclei (%) for Cc1ccc(OCC(O)C(C)NC(C)C)c2c1CCC2.Cl (stereo not given) please.
Result :: 80%

---

As shown below, each of these molecules has a reported Population Apoptotic (%) value.
Tested on: Fibroblast
Experiment: Multiplex assay against human fibroblast
Format: toxicity, cell-based
Settings: 24 h, 10 µM, compound concentration 10 uM, replicate 2
Numeric answer only, unit % assumed.

Query :: Identify Population Apoptotic (%) associated with the molecule COc1ccc2[nH]c(I)c(CCNC(C)=O)c2c1
Result :: 24

Query :: Please give the documented Population Apoptotic (%) of O=c1ccc2ccc(OCCCCN3CCN(c4cccc5sccc45)CC3)cc2[nH]1
Result :: 65

Query :: Answer with the recorded Population Apoptotic (%) of Cc1nn(C)c2nc(NNC(=O)Nc3cc(Cl)nc(Cl)c3)cc(C(C)C)c12 only.
Result :: 25

---

Recorded Population Apoptotic (%) values for a group of compounds are listed next.
Tested on: HEK-293T
Assay: Multiplex assay against HEK293T
Assay type: toxicity, cell-based
Details: human, 24 h, 1 µM, compound concentration 1 uM, replicate 2
Report the figure in % without appending any unit label.

CCc1nn2c(C)cc(C)nc2c1Cc1ccc(-c2nnc(C3CCNCC3)o2)cc1
34
Cc1cc(NC(=O)NCCN2CCC(O)(Cc3ccccc3)CC2)c2ccccc2n1
46
Cl.Cl.OCCOCCN1CCN(C(c2ccccc2)c2ccc(Cl)cc2)CC1 (configuration not stated) [HYDROXYZINE HYDROCHLORIDE]
43
CC(F)(F)CN1CCOc2c(nn(-c3ccccc3Cl)c2-c2ccc(Cl)cc2)C1=O
43
CN(C)C/C=C/C(=O)Nc1ccc(C(=O)N2CCCC(Nc3ncc(Cl)c(-c4c[nH]c5ccccc45)n3)C2)cc1 (configuration not stated)
74
CN1CCN(c2ccc(Nc3c4ccccc4nc4ccccc34)cc2)CC1.Cl.Cl.O
46

Query :: Please look at this compound and report its Population Apoptotic (%): COc1c(Nc2ccc(S(C)(=O)=O)nc2C)ncnc1OC1CCN(C(=O)OC(C)C)CC1
Result :: 30

---

System: U2OS
Experiment: Multiplex assay against U2OS
Type: toxicity, cell-based
Conditions: human, 48 h, 10 µM, compound concentration 10 uM, replicate 2
Population Pyknosed Nuclei (%) vs 10%: at or above is yes (1), below is no (0).

Below, 5 compounds whose answers are already recorded.
O=C(NCCNCC(O)COc1ccc(O)cc1)N1CCOCC1.O=C(NCCNCC(O)COc1ccc(O)cc1)N1CCOCC1.O=C(O)/C=C/C(=O)O (configuration not stated) [XAMOTEROL FUMARATE]
no (0)
C=CCN1C[C@H](C(=O)N(CCCN(C)C)C(=O)NCC)C[C@@H]2c3cccc4[nH]cc(c34)C[C@H]21 [CABERGOLINE]
yes (1)
COc1c(Nc2ccc(S(C)(=O)=O)nc2C)ncnc1OC1CCN(C(=O)OC(C)C)CC1 [ADP-597]
yes (1)
COCCn1c(C)c(C)s/c1=N\C(=O)C1C(C)(C)C1(C)C
yes (1)
C[C@@H]1CC(=O)Nc2cccc(-c3ccc4c(c3)c(-c3cnn(C)c3)nn4C)c2N1
no (0)

Query :: Does the reported Population Pyknosed Nuclei (%) for COc1cc(OC2CCN(C(C)=O)CC2)ccc1C(=O)N1CCC(N2C(=O)OCc3ccccc32)CC1 fall at or above the 10% mark?
Result :: no (0)

---

Tested on: HEK-293T
Assay: Multiplex assay against HEK293T
Format: toxicity, cell-based
Conditions: human, 24 h, 10 µM, compound concentration 10 uM, replicate 2
Quick rule for you: Population Mitochondria Different-Phenotype (%) under 60% gets t, anything else gets f.

The examples below pair each entry with its known result.
Cc1cc(=O)n(C)c2cc(N3C(=O)CC[C@H](NS(=O)(=O)CC(C)C)[C@H]3c3ccc(Cl)cc3)ccc12
f
CC(C)(O)C(=O)N1CCN(c2ccc(C(F)(F)F)c(C3=C(c4c[nH]c5ccccc45)C(=O)NC3=O)c2)CC1
f
CCCCCCNC(=O)Nc1ccc(S(=O)(=O)Nc2ccc(CCNC[C@H](O)COc3ccc(O)cc3)cc2)cc1
f
C=CCN1C[C@H](C(=O)N(CCCN(C)C)C(=O)NCC)C[C@@H]2c3cccc4[nH]cc(c34)C[C@H]21
f
COC(c1ccccc1)(c1ccccc1)[C@H](Oc1nc(C)cc(C)n1)C(=O)O
t
Cc1nn(C)c2nc(NNC(=O)Nc3cc(Cl)nc(Cl)c3)cc(C(C)C)c12
f
CC(C)(C)c1ccc(CSc2cnn(C(C)(C)C)c(=O)c2Cl)cc1
f
O=C(Nc1cc(-c2ccccc2)nn1-c1ccccc1F)c1ccc([N+](=O)[O-])cc1
t
C[C@H](NC(=O)CNC(=O)c1cccc(Cl)c1)c1ccccc1
t
Cc1sc2c(c1C)C(c1ccc(Cl)cc1)=N[C@H](CC(=O)OC(C)(C)C)c1nnc(C)n1-2
f

Query :: Field: below-cutoff. Rule: recorded Population Mitochondria Different-Phenotype (%) strictly less than 60%. Subject: Cc1c(Cc2ccc3ccccc3n2)c2cc(F)ccc2n1CC(=O)O
Result :: t

Query :: Item CSc1nc(NC2CCCC2)c([N+](=O)[O-])c(NC2CCCC2)n1 : Population Mitochondria Different-Phenotype (%) beneath 60%, strictly?
Result :: t

Query :: Regarding CN(C)C/C=C/C(=O)Nc1ccc(C(=O)N2CCCC(Nc3ncc(Cl)c(-c4c[nH]c5ccccc45)n3)C2)cc1 (stereo not drawn) , kindly confirm whether its Population Mitochondria Different-Phenotype (%) is beneath 60%.
Result :: f

Measured values drawn from ChEMBL document CHEMBL5058577 for this set.
